test: MHET released, HPLC; higher = more MHET released; extreme values may be limits of the assay; conditions: PET substrate: aFilm; 70 °C; pH 7.5; 24 h
Quick reference: MHET released of the listed items.
Numeric only. Scale: mM

See these solved cases before continuing.
record sequence	MHET released / mM
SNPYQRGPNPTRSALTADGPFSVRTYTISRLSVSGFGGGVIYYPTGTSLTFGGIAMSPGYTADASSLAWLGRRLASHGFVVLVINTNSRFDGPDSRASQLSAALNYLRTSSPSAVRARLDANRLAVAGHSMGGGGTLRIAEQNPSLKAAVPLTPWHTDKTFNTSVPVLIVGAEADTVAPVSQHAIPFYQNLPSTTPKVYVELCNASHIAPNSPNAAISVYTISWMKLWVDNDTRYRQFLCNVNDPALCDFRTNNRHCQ [LCC-ICCG RIP]	2.36
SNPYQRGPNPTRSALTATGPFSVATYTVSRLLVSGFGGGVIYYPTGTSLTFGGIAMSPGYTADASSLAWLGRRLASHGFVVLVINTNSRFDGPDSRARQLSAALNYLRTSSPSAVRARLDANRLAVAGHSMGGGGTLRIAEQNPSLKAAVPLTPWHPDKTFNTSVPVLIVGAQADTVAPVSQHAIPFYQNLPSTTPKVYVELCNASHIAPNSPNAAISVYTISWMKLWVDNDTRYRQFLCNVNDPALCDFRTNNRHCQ [LCC-ICCG I6M]	1.51

## Input What value of measured MHET released is listed for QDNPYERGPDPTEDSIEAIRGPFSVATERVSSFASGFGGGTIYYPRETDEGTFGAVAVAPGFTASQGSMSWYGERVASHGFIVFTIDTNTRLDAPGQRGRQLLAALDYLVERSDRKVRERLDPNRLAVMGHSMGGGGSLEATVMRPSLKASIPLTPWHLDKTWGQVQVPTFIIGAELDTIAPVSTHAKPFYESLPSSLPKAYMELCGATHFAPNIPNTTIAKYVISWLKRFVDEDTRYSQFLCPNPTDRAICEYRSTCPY [Cut190*SS] ?
## Output 0.234

* * *

assay: PET hydrolysis product formed (TPA+MHET+BHET, UV-Vis) per mg enzyme (mmol/mg enzyme); higher = more PET depolymerisation activity; extreme values may be limits of the assay; conditions: PET substrate: aFilm; 60 °C; pH 5.5; 2 h
measure name: PET hydrolysis product formed
Write the value as a bare number.

Worked set:
record sequence	PET hydrolysis product formed
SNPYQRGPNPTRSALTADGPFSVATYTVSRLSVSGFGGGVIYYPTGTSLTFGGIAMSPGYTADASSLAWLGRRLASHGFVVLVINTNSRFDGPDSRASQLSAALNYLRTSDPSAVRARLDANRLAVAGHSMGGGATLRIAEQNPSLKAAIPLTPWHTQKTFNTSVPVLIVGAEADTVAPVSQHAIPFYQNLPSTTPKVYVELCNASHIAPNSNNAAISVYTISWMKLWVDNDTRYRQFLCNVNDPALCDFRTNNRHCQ [LCC-ICCG DAQI]	0.0208
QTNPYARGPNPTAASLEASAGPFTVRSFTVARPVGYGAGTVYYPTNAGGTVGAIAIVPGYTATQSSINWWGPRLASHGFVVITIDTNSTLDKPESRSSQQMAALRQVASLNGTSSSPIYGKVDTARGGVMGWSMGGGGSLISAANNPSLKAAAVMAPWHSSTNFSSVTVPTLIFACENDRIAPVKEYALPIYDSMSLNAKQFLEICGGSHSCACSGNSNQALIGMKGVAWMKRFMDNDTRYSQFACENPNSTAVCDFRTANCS [HotPETase]	0
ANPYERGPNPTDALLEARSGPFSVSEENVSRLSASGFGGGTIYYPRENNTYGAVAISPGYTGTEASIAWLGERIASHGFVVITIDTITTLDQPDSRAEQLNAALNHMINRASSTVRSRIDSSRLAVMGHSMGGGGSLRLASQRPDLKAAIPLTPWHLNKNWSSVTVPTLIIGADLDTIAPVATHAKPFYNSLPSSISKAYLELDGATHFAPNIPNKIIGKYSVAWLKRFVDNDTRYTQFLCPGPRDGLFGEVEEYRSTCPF [TfCut2]	0

Here's the next entry for you.
## Input Form field: reported PET hydrolysis product formed of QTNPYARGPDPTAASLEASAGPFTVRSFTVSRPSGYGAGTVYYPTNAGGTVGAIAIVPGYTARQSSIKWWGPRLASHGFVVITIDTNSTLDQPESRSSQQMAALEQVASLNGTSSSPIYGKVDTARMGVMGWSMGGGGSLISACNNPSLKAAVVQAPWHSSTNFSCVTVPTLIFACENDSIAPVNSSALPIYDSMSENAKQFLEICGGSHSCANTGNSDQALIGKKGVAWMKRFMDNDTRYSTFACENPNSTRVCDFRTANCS [Z1-PETase]
## Output 0

* * *

experiment: PET hydrolysis product formed (TPA+MHET+BHET, UV-Vis) per mg enzyme (mmol/mg enzyme); higher = more PET depolymerisation activity; extreme values may be limits of the assay; settings: PET substrate: cryPow; 70 °C; pH 9.5; 2 h
Everything with PET hydrolysis product formed lower than 0.02 is no (0); everything else, including exactly 0.02, is yes (1).

record sequence	label class
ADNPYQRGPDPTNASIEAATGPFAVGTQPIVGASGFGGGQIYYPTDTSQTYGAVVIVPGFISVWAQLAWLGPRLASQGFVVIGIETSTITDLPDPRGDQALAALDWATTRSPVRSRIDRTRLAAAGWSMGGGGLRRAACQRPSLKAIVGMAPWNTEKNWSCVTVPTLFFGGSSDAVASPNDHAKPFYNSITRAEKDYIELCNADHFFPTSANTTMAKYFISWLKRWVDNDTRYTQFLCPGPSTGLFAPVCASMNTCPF [CaPETaseM9]	no (0)
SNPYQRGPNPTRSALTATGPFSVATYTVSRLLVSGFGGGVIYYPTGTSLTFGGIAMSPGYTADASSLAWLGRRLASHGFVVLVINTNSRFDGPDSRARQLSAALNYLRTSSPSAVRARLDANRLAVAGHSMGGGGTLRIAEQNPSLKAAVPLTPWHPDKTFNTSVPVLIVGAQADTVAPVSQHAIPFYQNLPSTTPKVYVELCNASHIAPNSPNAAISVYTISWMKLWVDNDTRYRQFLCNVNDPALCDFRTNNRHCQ [LCC-ICCG I6M]	yes (1)
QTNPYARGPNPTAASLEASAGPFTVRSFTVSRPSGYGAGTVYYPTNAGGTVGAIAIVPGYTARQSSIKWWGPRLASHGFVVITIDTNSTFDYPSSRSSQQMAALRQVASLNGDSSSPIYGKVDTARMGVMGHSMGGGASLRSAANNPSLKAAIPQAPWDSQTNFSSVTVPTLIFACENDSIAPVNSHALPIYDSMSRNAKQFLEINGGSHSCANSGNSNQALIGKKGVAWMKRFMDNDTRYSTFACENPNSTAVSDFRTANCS [DuraPETase]	no (0)
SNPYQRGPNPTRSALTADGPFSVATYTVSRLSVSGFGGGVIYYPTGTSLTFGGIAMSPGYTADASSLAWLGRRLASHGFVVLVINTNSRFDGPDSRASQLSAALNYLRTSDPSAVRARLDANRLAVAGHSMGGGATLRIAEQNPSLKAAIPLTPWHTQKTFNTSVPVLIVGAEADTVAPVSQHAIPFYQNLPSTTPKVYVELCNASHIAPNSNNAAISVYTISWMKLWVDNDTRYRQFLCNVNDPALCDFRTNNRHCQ [LCC-ICCG DAQI]	yes (1)

Next, consider the following sequence.
## Input Reported PET hydrolysis product formed reaches at least 0.02 for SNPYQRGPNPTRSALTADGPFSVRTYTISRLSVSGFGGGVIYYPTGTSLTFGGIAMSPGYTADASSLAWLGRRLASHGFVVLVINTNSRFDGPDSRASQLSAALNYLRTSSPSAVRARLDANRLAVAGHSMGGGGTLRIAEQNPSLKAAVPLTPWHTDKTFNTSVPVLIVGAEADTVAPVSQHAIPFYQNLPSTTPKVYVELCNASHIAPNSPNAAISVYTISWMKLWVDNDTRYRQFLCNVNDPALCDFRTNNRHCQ [LCC-ICCG RIP] ?
## Output yes (1)

* * *

assay: PET hydrolysis product formed (TPA+MHET+BHET, UV-Vis) per mg enzyme (mmol/mg enzyme); higher = more PET depolymerisation activity; extreme values may be limits of the assay; settings: PET substrate: aFilm; 60 °C; pH 9.5; 24 h
Binary classification by PET hydrolysis product formed, with 0.2 as an inclusive lower bound for fulfilled; all other cases are not fulfilled.

Solved entries (count: 3):
record sequence	label class
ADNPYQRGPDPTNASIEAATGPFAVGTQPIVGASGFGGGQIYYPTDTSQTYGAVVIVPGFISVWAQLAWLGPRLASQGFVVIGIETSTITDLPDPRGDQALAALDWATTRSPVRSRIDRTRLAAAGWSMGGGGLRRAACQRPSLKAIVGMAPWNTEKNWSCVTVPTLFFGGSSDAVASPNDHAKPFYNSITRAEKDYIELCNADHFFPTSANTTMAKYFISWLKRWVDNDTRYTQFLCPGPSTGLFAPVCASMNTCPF [CaPETaseM9]	not fulfilled
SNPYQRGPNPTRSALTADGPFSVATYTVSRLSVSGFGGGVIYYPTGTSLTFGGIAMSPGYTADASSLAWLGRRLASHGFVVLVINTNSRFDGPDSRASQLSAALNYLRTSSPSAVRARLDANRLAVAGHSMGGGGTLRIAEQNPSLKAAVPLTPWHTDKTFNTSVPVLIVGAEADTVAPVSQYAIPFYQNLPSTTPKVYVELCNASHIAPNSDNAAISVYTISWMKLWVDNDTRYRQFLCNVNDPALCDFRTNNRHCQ [LCC-A2]	fulfilled
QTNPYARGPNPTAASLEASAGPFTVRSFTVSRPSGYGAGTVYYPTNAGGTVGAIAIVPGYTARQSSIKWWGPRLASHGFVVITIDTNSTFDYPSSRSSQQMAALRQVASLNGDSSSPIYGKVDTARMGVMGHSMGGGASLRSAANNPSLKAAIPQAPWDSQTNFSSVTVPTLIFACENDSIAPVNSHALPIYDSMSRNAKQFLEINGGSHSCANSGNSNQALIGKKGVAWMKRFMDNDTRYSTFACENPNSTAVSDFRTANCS [DuraPETase]	not fulfilled

## Input Evaluate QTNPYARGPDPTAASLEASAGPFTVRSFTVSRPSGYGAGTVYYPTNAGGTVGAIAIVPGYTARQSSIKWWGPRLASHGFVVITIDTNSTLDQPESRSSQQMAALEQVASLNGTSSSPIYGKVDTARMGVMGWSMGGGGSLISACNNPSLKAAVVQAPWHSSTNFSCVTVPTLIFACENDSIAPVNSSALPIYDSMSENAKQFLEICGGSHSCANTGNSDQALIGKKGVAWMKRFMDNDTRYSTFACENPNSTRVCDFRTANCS [Z1-PETase] : PET hydrolysis product formed at minimum 0.2?
## Output fulfilled

## Input Say whether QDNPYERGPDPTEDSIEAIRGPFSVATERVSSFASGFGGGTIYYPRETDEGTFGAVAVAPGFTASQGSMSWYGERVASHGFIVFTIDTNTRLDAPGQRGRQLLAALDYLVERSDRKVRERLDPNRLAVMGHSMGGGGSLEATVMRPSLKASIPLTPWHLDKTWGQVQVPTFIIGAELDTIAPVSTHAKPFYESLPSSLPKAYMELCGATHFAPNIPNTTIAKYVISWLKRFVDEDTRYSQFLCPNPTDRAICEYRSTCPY [Cut190*SS] shows PET hydrolysis product formed of 0.2 or more.
## Output not fulfilled

## Input Check this sequence for PET hydrolysis product formed at or above 0.2: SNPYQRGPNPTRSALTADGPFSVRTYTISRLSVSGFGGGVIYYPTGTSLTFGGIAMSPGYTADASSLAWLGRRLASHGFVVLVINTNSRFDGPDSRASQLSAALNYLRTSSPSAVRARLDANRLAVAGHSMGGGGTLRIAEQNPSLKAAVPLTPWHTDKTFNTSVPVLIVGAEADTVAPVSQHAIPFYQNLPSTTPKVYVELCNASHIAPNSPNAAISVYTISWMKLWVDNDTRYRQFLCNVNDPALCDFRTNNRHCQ [LCC-ICCG RIP]
## Output fulfilled

## Input Please check the record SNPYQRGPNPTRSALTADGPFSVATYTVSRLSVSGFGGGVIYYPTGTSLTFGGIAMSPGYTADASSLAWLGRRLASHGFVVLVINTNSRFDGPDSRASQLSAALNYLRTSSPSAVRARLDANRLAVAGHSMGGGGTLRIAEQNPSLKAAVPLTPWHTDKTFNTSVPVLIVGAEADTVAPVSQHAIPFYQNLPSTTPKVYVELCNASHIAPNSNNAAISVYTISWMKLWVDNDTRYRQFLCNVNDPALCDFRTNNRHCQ [LCC-ICCG] and state if its PET hydrolysis product formed is at or above 0.2.
## Output fulfilled
